- assayOverview: Macrophage viability (MTS) with CPP2 and compounds
- Format: cell-based, human
- statedConditions: human, THP-1-derived macrophages, 30 µM + CPP2; read-out: Macrophage viability (MTS), % of medium control
endpointName: viability at 24 h, 30 µM (%)
Unit % implied. Number only.

Reported viability at 24 h, 30 µM ( COCCOCCO[C@@H]1[C@@H](OP(=O)(O)O)[C@H](OCCOCCOC)[C@@H](OP(=O)(O)O)[C@@H](OP(=O)(O)O)[C@H]1OP(=O)(O)O ) = 96.5

Reported viability at 24 h, 30 µM ( O=P(O)(O)O[C@H]1[C@H](OP(=O)(O)O)[C@@H](OP(=O)(O)O)[C@H](OP(=O)(O)O)[C@@H](OP(=O)(O)O)[C@H]1OP(=O)(O)O [IP6, myo-Inositol hexakisphosphate] ) = 95.5

Ref: paper PMC7002685
